tested on: A2780; test: Cytotoxicity against human A2780 cells after 96 hrs by MTT assay; settings: A2780, 96 h
Listed below: pIC50 values for each entry.
Reminder that pIC50 is minus the log10 of a molar concentration.

Provide pIC50, recorded with A2780, of COC(=O)C(Cc1ccccc1)NC(=O)Cn1cc(C2=C(c3c[nH]c4ccccc34)C(=O)N(C)C2=O)c2ccccc21 (single isomer, unassigned) 4.11

====

Listed below: IC50 values for each entry.
tested on: A549; experiment: Cytotoxicity against human A549 cells after 96 hrs by MTT assay; details: A549, 96 h
Number only, in µM; omit the unit.

In the examples that follow, each entry is paired with its recorded IC50.
>>> reportedresult("COC(=O)CC(NC(=O)Cn1cc(C2=C(c3c[nH]c4ccccc34)C(=O)N(C)C2=O)c2ccccc21)C(=O)OC (single isomer, unassigned)")
74.2
>>> reportedresult("COC(=O)C(Cc1c[nH]c2ccccc12)NC(=O)Cn1cc(C2=C(c3c[nH]c4ccccc34)C(=O)N(C)C2=O)c2ccccc21 (single isomer, unassigned)")
45.2
>>> reportedresult("COC(=O)[C@H](NC(=O)Cn1cc(C2=C(c3c[nH]c4ccccc34)C(=O)N(C)C2=O)c2ccccc21)C(C)C")
30.6

Okay, next one:
Provide IC50, recorded with A549, of COC(=O)[C@@H](CO)NC(=O)Cn1cc(C2=C(c3c[nH]c4ccccc34)C(=O)N(C)C2=O)c2ccccc21 37.9
